Kindly supply the reported FOB values for the records listed here.
Molecular target: T1, mouse SIRPβ1 on CHO cells (mouse)
T1 construct: Whole entry
T1 chain: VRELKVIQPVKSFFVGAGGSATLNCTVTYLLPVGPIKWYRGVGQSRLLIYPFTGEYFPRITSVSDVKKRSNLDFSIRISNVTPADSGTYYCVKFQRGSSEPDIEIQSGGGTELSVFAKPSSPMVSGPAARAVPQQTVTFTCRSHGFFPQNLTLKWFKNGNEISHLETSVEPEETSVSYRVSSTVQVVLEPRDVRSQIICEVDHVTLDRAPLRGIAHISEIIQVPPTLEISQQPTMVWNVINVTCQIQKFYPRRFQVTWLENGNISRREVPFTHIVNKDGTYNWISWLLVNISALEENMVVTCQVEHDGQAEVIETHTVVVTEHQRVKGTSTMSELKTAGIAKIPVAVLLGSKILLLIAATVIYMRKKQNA
Assay: flow cytometry;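 also: antibodies tested at 1 µg/ml for 30 min on ice against receptor-expressing cells, detected with a PE-labelled secondary antibody, read as mean fluorescence intensity relative to background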
Write it as a number; the unit fold over background goes unstated.

Provide FOB value for the following binder: SB-25 (antibody, V domains shown, IgG) VH: QVQLVQSGAEVKKPGSSVKVSCKASGGTFSSLAISWVRQAPGQGLEWMGGIIPIFGTANYAQKFQGRVTITADESTSTAYMELSSLRSEDTAVYYCARSGGDYSGYDYASGMDVWGQGTTVTVSS VL: DIQMTQSPSSVSASVGDRVTITCRASQGISSWLAWYQQKPGKAPKLLIYAASSLQSGVPSRFSGSGSGTDFTLTISSLQPEDFATYYCQQVNSFPWTFGGGTKVEIK 1.2

Provide FOB value for the following binder: SB-42 (antibody, V domains shown, IgG) VH: QVQLVQSGAEVKKPGASVKVSCKASGYTFTSYGISWVRQAPGQGLEWMGWISAYNGNTNYAQKLQGRVTMTTDTSTSTAYMELRSLRSDDTAVYYCARGPGHYYVAGMDVWGQGTTVTVSS VL: EIVMTQSPATLSVSPGERATITCRASQSISSYLNWYQQKPGKAPKLLIYSASSLQSGVPSRFSGSGSGTDFTLTISSLQPEDFATYYCQQGDSFPITFGGGTKVEIK 1.2

Provide FOB value for the following binder: SB-40 (antibody, V domains shown, IgG; also called SB-40 (p)) VH: QVQLVQSGAEVKKPGASVKVSCKASGYTFTSYYMSWVRQAPGQGLEWMGIINPSGGSTSYAQKFQGRVTMTRDTSTSTVYMELSSLRSEDTAVYYCARDTGEYSYSPHGMDVWGQGTTVTVSS VL: EIVLTQSPATLSLSPGERATLSCRASQSVSSYLAWYQQKPGQAPRLLIYDSSNRATGIPARFSGSGSGTDFTLTISSLEPEDFAVYYCQQRDEHPPWTFGGGTKVEIK 1.1

Provide FOB value for the following binder: SB-4 (antibody, V domains shown, IgG) VH: QVQLVQSGAEVKKPGASVKVSCKASGYTFTSYGISWVRQAPGQGLEWMGWISAYNGNTNYAQKLQGRVTMTTDTSTSTAYMELRSLRSDDTAVYYCARSGTHFGTYSYSNWFDPWGQGTLVTVSS VL: EIVLTQSPGTLSLSPGERATLSCRASQSVSSSYLAWYQQKPGQAPRLLIYGASSRATGIPDRFSGSGSGTDFTLTISRLEPEDFAVYYCQQYADAPITFGGGTKVEIK 1.2

Provide FOB value for the following binder: SB-41 (antibody, V domains shown, IgG) VH: QLQLQESGPGLVKPSETLSLTCTVSGGSISSSSYYWGWIRQPPGKGLEWIGSIYYSGSTYYNPSLKSRVTISVDTSKNQFSLKLSSVTAADTAVYYCARVGQYPIYGMDVWGQGTTVTVSS VL: DIQMTQSPSSLSASVGDRVTITCQASQDITNYLNWYQQKPGKAPKLLIYDASNLETGVPSRFSGSGSGTDFTFTISSLQPEDIATYYCQQADNFPYTFGGGTKVEIK 1.3

Provide FOB value for the following binder: SB-30 (antibody, V domains shown, IgG) VH: QVQLQESGPGLVKPSQTLSLTCTVSGGSISSGGYYWSWIRQHPGKGLEWIGYIYYSGSTVYNPSLKSRVTISVDTSKNQFSLKLSSVTAADTAVYYCAREGPGYPSYFDPWGQGTLVTVSS VL: EIVLTQSPGTLSLSPGERATLSCRASQSVSSSFLAWYQQKPGQAPRLLIYGASSRATGIPDRFSGSGSGTDFTLTISRLEPEDFAVYYCQQFLSSPWTFGGGTKVENQ 1.4

Provide FOB value for the following binder: SB-37 (antibody, V domains shown, IgG) VH: QVQLVQSGAEVKKPGSSVKVSCKASGGTFSNYAISWVRQAPGQGLEWMGGIIPIFGTANYAQKFQGRVTITADESTSTAYMELSSLRSEDTAVYYCARSRWGASGYYYYMDVWGQGTMVTVSS VL: EIVLTQSPATLSLSPGERATLSCRASQSVSSYLAWYQQKPGQAPRLLIYDASNRATGIPARFSGSGSGTDFTLTISSLEPEDFAVYYCQQRHTYPLTFGGGTKVEIK 1.2

Provide FOB value for the following binder: SB-38 (antibody, V domains shown, IgG) VH: QVQLVQSGAEVKKPGASVKVSCKASGYTFTSYYMHWVRQAPGQGLEWMGIINPSGGSTSYAQKFQGRVTMTRDTSTSTVYMELSSLRSEDTAVYYCARESGTDFGTISYWGQGTLVTVSS VL: DIQMTQSPSSVSASVGDRVTITCRASQGISSWLAWYQQKPGKAPKLLIYAASSLQSGVPSRFSGSGSGTDFTLTISSLQPEDFATYYCQQAVSYPITFGGGTKVEIK 1.3

Provide FOB value for the following binder: SB-44 (antibody, V domains shown, IgG) VH: EVQLVESGGGLVQPGGSLRLSCAASGFTVSSNYMSWVRQAPGKGLEWVSVIYSGGDTYYADSVKGRFTISRDNSKNTLYLQMNSLRAEDTAVYYCAREGSSFWSGSAVSYYGMDVWGQGTTVTVSS VL: DIQMTQSPSTLSASVGDRVTITCRASQSIGSWLAWYQQKPGKAPKLLIYKASSLESGVPSRFSGSGSGTEFTLTISSLQPDDFATYYCQEYGSYRTFGGGTKVEIK 1.5

Provide FOB value for the following binder: SB-8 (antibody, V domains shown, IgG; also called SB-8 (p)) VH: QVQLQESGPGLVKPSETLSLTCAVSGYSISSGYYWGWIRQPPGKGLEWIGSIYHSGSTYYNPSLKSRVTISVDTSKNQFSLKLSSVTAADTAVYYCARGGAMTPAGMDVWGQGTTVTVSS VL: EIVMTQSPGTLSLSPGERATLSCRASQSVSSSYLAWYQQKPGQAPRLLIYGASNRATGIPDRFSGSGSGTDFTLTISRLEPEDFAVYYCQQVYSSPYTFGGGTKVEIK 1.7
